// data source = patent US20230272056A1

Give measured Fold change for each item. Keep answers brief.
Target: T1, human LAP-TGFB1 Fc fusion (human)
T1 construct: also called human LAP-TGFβ1-Fc; human LAP-TGFβ-Fc isoform 1
T1 sequence (chain, as listed by the source limits assumed): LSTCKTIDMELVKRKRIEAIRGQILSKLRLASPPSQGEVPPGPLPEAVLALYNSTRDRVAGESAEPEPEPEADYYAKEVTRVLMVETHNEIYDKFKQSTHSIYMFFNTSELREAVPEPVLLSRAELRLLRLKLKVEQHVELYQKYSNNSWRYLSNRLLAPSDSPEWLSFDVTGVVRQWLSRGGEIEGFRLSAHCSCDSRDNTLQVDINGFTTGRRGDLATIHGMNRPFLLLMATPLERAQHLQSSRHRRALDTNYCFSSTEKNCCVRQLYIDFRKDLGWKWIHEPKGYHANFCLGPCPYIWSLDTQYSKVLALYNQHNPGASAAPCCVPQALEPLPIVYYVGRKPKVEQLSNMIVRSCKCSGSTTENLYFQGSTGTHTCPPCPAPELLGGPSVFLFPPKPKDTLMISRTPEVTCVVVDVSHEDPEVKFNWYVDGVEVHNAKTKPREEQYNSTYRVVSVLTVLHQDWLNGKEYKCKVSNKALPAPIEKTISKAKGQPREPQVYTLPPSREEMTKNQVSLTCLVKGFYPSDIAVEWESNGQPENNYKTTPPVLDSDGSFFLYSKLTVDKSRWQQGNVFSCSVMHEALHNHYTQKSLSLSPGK
Assay: BLI off-rate screen
Provide the reading as a plain figure in fold.

Entry under test: VL T93Y (58BIT) (Fab, V domains shown) VH: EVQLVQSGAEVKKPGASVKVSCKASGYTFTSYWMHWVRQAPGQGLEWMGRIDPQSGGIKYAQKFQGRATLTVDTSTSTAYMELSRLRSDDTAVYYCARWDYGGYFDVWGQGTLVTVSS VL: DIQMTQSPSSLSASVGDRVTITCRASQDITNYLNWYQQKPGKAVKLLIYYTSRLHSGVPSRFSGSGSGTDYTLTISSLQPEDFATYFCQQGDYLPWTFGQGTKLEIKR . Its Fold change was 1.5

Entry under test: VL S26Y (40BIT) (Fab, V domains shown) VH: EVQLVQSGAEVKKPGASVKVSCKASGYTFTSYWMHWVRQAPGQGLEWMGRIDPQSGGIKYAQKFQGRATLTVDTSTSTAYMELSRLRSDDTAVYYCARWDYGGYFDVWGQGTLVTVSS VL: DIQMTQSPSSLSASVGDRVTITCRAYQDITNYLNWYQQKPGKAVKLLIYYTSRLHSGVPSRFSGSGSGTDYTLTISSLQPEDFATYFCQQGDTLPWTFGQGTKLEIKR . Its Fold change was 1.5

Entry under test: VH W33Y (71BIT) (Fab, V domains shown) VH: EVQLVQSGAEVKKPGASVKVSCKASGYTFTSYYMHWVRQAPGQGLEWMGRIDPQSGGIKYAQKFQGRATLTVDTSTSTAYMELSRLRSDDTAVYYCARWDYGGYFDVWGQGTLVTVSS VL: DIQMTQSPSSLSASVGDRVTITCRASQDITNYLNWYQQKPGKAVKLLIYYTSRLHSGVPSRFSGSGSGTDYTLTISSLQPEDFATYFCQQGDTLPWTFGQGTKLEIKR . Its Fold change was 1.8
